Test: Phenytoin solubility in absence and presence of fosphenytoin and (SBE)7m-β-CD
Type: physicochemical
Conditions: 0.02 m tris buffer, pH 7.4, aqueous buffer, pH 7.4, 25° C., absence of fosphenytoin; read-out: Solubility of phenytoin
observed property: solubility at 120 h (µg/mL)
Please give a number only; it is taken to be in µg/mL.

Return value of solubility at 120 h for input O=C1NC(=O)C(c2ccccc2)(c2ccccc2)N1 , no commentary.
18.1

###

Experiment: Phenytoin solubility in absence and presence of fosphenytoin and (SBE)7m-β-CD
Format: physicochemical
Settings: 0.02 m tris buffer, pH 8, aqueous buffer, pH 8.0, 25° C., printed 'in the absence of phenytoin'; read-out: Solubility of phenytoin
observed property: solubility at 120 h (µg/mL)
// note: answer is a bare numeric in µg/mL

Item O=C1NC(=O)C(c2ccccc2)(c2ccccc2)N1 : provide solubility at 120 h
27.5
